Cited source: PubChem BioAssay

# Assay Details: viability loss with induced miR-34 in A549 – imaging, A549 dox-inducible miR-34, nuclei and caspase counts, primary screen (AID 1347080); further: test concentration not given here
# Assay Context: A549 miR-34 inducible, Hoechst nuclei count, 48 h; measured here: relative caspase fold change +Dox/-Dox
Catalogue of molecules with associated fold change
No unit in the answer, please; the number alone is enough.

>  <Molecule>
CCC[C@@H]1OC2C[C@H]3[C@@H]4CCC5=CC(=O)C=C[C@]5(C)[C@@H]4C(O)C[C@]3(C)[C@@]2(C(=O)CO)O1 (stereo not given in full)

>  <fold change>
0.72

$$$$
>  <Molecule>
C=CCn1cc(-c2nc3c([nH]2)c(-c2cccnc2)nn3C)c(C)n1

>  <fold change>
0.787

$$$$
>  <Molecule>
CON=C(C(=O)N[C@@H]1C(=O)N2C(C(=O)O)=C(CSC(=O)c3ccco3)CS[C@H]12)c1csc(N)n1

>  <fold change>
1.19

$$$$
>  <Molecule>
COc1ccc(-c2cc(=O)c3c(O)cc(O)cc3o2)cc1

>  <fold change>
1.12

$$$$

Shift focus to the following entry.
Challenge: Recorded fold change for COc1cc(C2Oc3cc(C4Oc5cc(O)cc(O)c5C(=O)C4O)ccc3OC2CO)ccc1O (stereo not given) , please?
Response given: 0.695
